Molecular target: p56lck GST-SH2 (lck SH2 domain) (Homo sapiens, UniProt P06239)
Construct: GST (N)
Sequence (P06239 127-224 limits assumed): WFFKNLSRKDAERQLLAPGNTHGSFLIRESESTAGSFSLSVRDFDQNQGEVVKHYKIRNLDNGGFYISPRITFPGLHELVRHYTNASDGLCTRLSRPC
Assay: Receptor-ligand equilibrium binding constants by surface plasmon resonance (biosensor), lck SH2 domain
Details: Table 1, compounds of formula (II)
Kd reference
quantity-name: Kd

compound: COc1ccc(Cn2ccc(C)c(NC(=O)[C@H](Cc3ccc(CC(=O)O)cc3)NC(=O)Cc3ccc(CC(C)(C)C)cc3)c2=O)cc1
result: 1.1 µM
--
compound: COc1ccc(Cn2ccc(C)c(NC(=O)[C@H](Cc3ccc(CC(=O)O)cc3)NC(=O)Cc3cccc(Oc4ccccc4)c3)c2=O)cc1
result: 3.3 µM
--
compound: COCCOCCn1ccc(C)c(NC(=O)C(Cc2ccc(C(C)(C)C(=O)O)cc2)NC(=O)Cc2ccc3ccccc3c2)c1=O (stereo not shown)
result: 6 µM
--
compound: COc1ccc(Cn2ccc(C)c(NC(=O)[C@H](Cc3ccc(NC(=O)C(=O)O)cc3)NC(=O)Cc3cccc([N+](=O)[O-])c3)c2=O)cc1
result: 0.82 µM
--
compound: Cc1ccn(Cc2ccc(C(C)C)cc2)c(=O)c1NC(=O)[C@H](Cc1ccc(N(O)C(=O)C(=O)O)cc1)NC(=O)Cc1ccc(N(C)C)cc1
result: 23 µM
--
compound: COc1ccc(Cn2ccc(C)c(NC(=O)[C@H](Cc3ccc(NC(=O)C(=O)O)cc3)NC(=O)Cc3ccccc3)c2=O)cc1
result: 1.9 µM
--
compound: COc1ccc(Cn2ccc(C)c(NC(=O)[C@H](Cc3ccc(C4(C(=O)O)CC4)cc3)NC(=O)Cc3ccc4ccccc4c3)c2=O)cc1
result: 1.8 µM
--
compound: Cc1ccn(Cc2ccccc2)c(=O)c1NC(=O)[C@H](Cc1ccc(CC(=O)O)cc1)NC(=O)Cc1cccc2ccccc12
result: 17.7 µM
--
compound: COc1ccc(Cn2ccc(C)c(NC(=O)[C@H](Cc3ccc(NC(=O)C(=O)O)cc3)NC(=O)Cc3ccc([N+](=O)[O-])cc3)c2=O)cc1
result: 3.7 µM
--
compound: COc1ccc(Cn2ccc(C)c(NC(=O)C(Cc3ccc(C(C)(C)C(=O)O)cc3)NC(=O)C(C)(C)c3ccc(-c4ccccc4)cc3)c2=O)cc1 (stereo not shown)
result: 1.4 µM
--
compound: Cc1ccn(CC2CCOC2)c(=O)c1NC(=O)C(Cc1ccc(C(C)(C)C(=O)O)cc1)NC(=O)Cc1ccc2ccccc2c1 (stereo not shown)
result: 4.9 µM
--
compound: COc1ccc(Cn2ccc(C)c(NC(=O)[C@H](Cc3ccc(CC(=O)O)cc3)NC(=O)[C@@H](C)c3ccc4cc(OC)ccc4c3)c2=O)cc1
result: 8.8 µM
--
compound: COc1ccc(Cn2ccc(C)c(NC(=O)C(Cc3ccc(C(C)(C)C(=O)O)cc3)NC(=O)Cc3ccc4ccccc4c3)c2=O)cc1C (racemic)
result: 3.8 µM
--
compound: CCCCCCn1cc(C(=O)OC)c(C)c(NC(=O)C(Cc2ccc(C(C)(C)C(=O)O)cc2)NC(=O)Cc2ccc3ccccc3c2)c1=O (stereo not shown)
result: 0.74 µM
--
compound: COc1ccc(Cn2ccc(C)c(NC(=O)[C@H](Cc3ccc(C(C)(C)C(=O)O)cc3)NC(=O)C(C)(C)c3cccc4ccccc34)c2=O)cc1
result: 3.6 µM
--
compound: Cc1ccn(CCCCC(C)C)c(=O)c1NC(=O)C(Cc1ccc(C(C)(C)C(=O)O)cc1)NC(=O)Cc1ccc2ccccc2c1 (stereo not shown)
result: 0.84 µM
--
compound: COc1ccc(Cn2ccc(C)c(NC(=O)[C@H](Cc3ccc(NC(=O)C(=O)O)cc3)NC(=O)Cc3sc(N)nc3-c3ccccc3)c2=O)cc1
result: 2.9 µM
--
compound: CCCCCCn1ccc(C)c(NC(=O)C(Cc2ccc(C(C)(C)C(=O)O)cc2)NC(=O)Cc2ccc3ccccc3c2)c1=O (stereo not shown)
result: 0.51 µM
--
compound: COc1ccc(Cn2ccc(C)c(NC(=O)[C@H](Cc3ccc(C(F)(F)P(=O)(O)O)cc3)NC(C)=O)c2=O)cc1
result: 1.3 µM
--
compound: COc1ccc(Cn2ccc(C)c(NC(=O)[C@H](Cc3ccc(NC(=O)C(=O)O)cc3)NC(=O)Cc3csc(N)n3)c2=O)cc1
result: 6.7 µM
--
compound: COc1ccc(Cn2ccc(C)c(NC(=O)C(Cc3ccc(C(C)(C)C(=O)O)cc3)N(C)C(=O)C(C)(C)c3ccc4ccccc4c3)c2=O)cc1 (stereo not shown)
result: 460 µM
--
compound: COc1ccc(Cn2ccc(C)c(NC(=O)[C@H](Cc3ccc(C(CO)C(=O)O)cc3)NC(=O)OCc3ccccc3)c2=O)cc1 (stereo partly shown)
result: 39 µM
--
compound: COc1ccc(Cn2ccc(C)c(NC(=O)C(Cc3ccc(C(C)(C)C(=O)O)cc3)NC(=O)Cc3ccc(C(C)(C)C)cc3)c2=O)cc1 (stereo not shown)
result: 0.31 µM
--
compound: COc1ccc(Cn2ccc(C)c(NC(=O)[C@H](Cc3ccc(CC(=O)O)cc3)NC(=O)C3(c4ccccc4)CC3)c2=O)cc1
result: 20 µM
--
compound: Cc1ccn(C/C=C/c2ccccc2)c(=O)c1NC(=O)C(Cc1ccc(C(C)(C)C(=O)O)cc1)NC(=O)C(C)(C)c1ccc2ccccc2c1 (stereo not shown) [Compound 177]
result: 3.2 µM

---

Target: p56lck GST-SH2 (lck SH2 domain) (Homo sapiens, UniProt P06239)
Construct: GST (N)
Test: Receptor-ligand equilibrium binding constants by surface plasmon resonance (biosensor), lck SH2 domain
Details: Table 1, compounds of formula (II)
pKd: −log10 of the molar value.
Threshold check on pKd: at or above 5 gives condition met, strictly below gives condition not met.

compound: Cc1ccn(CC2CCOC2)c(=O)c1NC(=O)C(Cc1ccc(C(C)(C)C(=O)O)cc1)NC(=O)Cc1cccc2ccccc12 (stereo not shown)
assigned-category: condition not met
--
compound: Cc1ccn(CC2(c3ccccc3)CC2)c(=O)c1NC(=O)C(Cc1ccc(C(C)(C)C(=O)O)cc1)NC(=O)Cc1ccc2ccccc2c1 (stereo not shown)
assigned-category: condition met
--
compound: COCCCCn1ccc(C)c(NC(=O)C(Cc2ccc(C(C)(C)C(=O)O)cc2)NC(=O)Cc2ccc3ccccc3c2)c1=O (stereo not shown)
assigned-category: condition met
--
compound: Cc1ccn(Cc2ccoc2)c(=O)c1NC(=O)C(Cc1ccc(C(C)(C)C(=O)O)cc1)NC(=O)Cc1cccc2ccccc12 (stereo not shown)
assigned-category: condition met
--
compound: COc1cc(Cn2ccc(C)c(NC(=O)C(Cc3ccc(C(C)(C)C(=O)O)cc3)NC(=O)Cc3ccc4ccccc4c3)c2=O)cc(OC)c1OC (stereo not shown)
assigned-category: condition not met
--
compound: COc1ccc(Cn2ccc(C)c(NC(=O)[C@H](Cc3ccc(CC(=O)O)cc3)NC(=O)COc3ccc4ccccc4c3)c2=O)cc1
assigned-category: condition met
--
compound: COc1ccc(Cn2ccc(C)c(NC(=O)[C@H](Cc3ccc(C(C)C(=O)O)cc3)NC(=O)Cc3cccc4ccccc34)c2=O)cc1 (stereo partly shown)
assigned-category: condition met
--
compound: COc1ccc(Cn2ccc(C)c(NC(=O)[C@H](Cc3ccc(CC(=O)O)cc3)NC(=O)Cc3cccc4ccccc34)c2=O)cc1
assigned-category: condition met
--
compound: COc1ccc(Cn2ccc(C)c(NC(=O)[C@H](Cc3ccc(CC(=O)O)cc3)NC(C)=O)c2=O)cc1
assigned-category: condition not met
--
compound: COc1ccc(Cn2ccc(C)c(NC(=O)C(Cc3ccc(C(C)(C)C(=O)O)cc3)NC(=O)C(C)C)c2=O)cc1 (stereo not shown)
assigned-category: condition met
--
compound: CCc1ccn(Cc2ccc(OC)cc2)c(=O)c1NC(=O)[C@H](Cc1ccc(CC(=O)O)cc1)NC(=O)Cc1cccc2ccccc12
assigned-category: condition met
--
compound: COc1ccc(Cn2ccc(C)c(NC(=O)[C@H](Cc3ccc(NC(=O)C(=O)O)cc3)NC(=O)Cc3csc(NC=O)n3)c2=O)cc1
assigned-category: condition met
--
compound: CCCCCn1ccc(C)c(NC(=O)C(Cc2ccc(C(C)(C)C(=O)O)cc2)NC(=O)C(C)(C)c2ccc3ccccc3c2)c1=O (stereo not shown)
assigned-category: condition met

---

Test system: Inter-leukin 2 (IL-2) production by activated Human Primary T Lymphocytes
Assay: Primary T cell assay: inhibition of IL-2 production by activated human primary CD4 positive T lymphocytes
Assay type: cell-based
Settings: Homo sapiens, CD4 positive, Table 5; mean IC50 value; CD4 positive T cells activated with anti-CD3/anti-CD28, IL-2 by ELISA; read-out: IC50 (blocking IL-2 production)
pIC50: −log10 of the molar value.
Decide by pIC50: equal to or exceeding 4 means True, less means False.

molecule: CCOc1ccc(Cn2ccc(C)c(NC(=O)C(Cc3ccc(C(C)(C)C(=O)O)cc3)NC(=O)C(C)(C)c3cccc4ccccc34)c2=O)cc1 (stereo not shown) [Compound 141]
assigned-category: True
//
molecule: COc1ccc(Cn2ccc(C)c(NC(=O)[C@H](Cc3ccc(C(C)(C)C(=O)O)cc3)NC(=O)Cc3ccc(NCc4ccccc4)cc3)c2=O)cc1 [Compound 130]
assigned-category: False
//
molecule: COc1ccc(Cn2ccc(C)c(NC(=O)[C@H](Cc3ccc(C(C)(C)C(=O)O)cc3)NC(=O)C(C)c3ccc(CC(C)C)cc3)c2=O)cc1 (stereo partly shown) [Compound 112]
assigned-category: True
//
molecule: CCCCCCCn1ccc(C)c(NC(=O)C(Cc2ccc(C(C)(C)C(=O)O)cc2)NC(=O)Cc2ccc3ccccc3c2)c1=O (stereo not shown) [Compound 138]
assigned-category: True
//
molecule: Cc1ccn(CC2(c3ccccc3)CC2)c(=O)c1NC(=O)C(Cc1ccc(C(C)(C)C(=O)O)cc1)NC(=O)C(C)(C)c1ccc2ccccc2c1 (stereo not shown) [Compound 215]
assigned-category: True
//
molecule: COc1ccc(Cn2ccc(C)c(N(C)C(=O)C(Cc3ccc(C(C)(C)C(=O)O)cc3)NC(=O)Cc3ccc4ccccc4c3)c2=O)cc1 (stereo not shown) [Compound 151]
assigned-category: True
//
molecule: CCC(CC)(C(=O)NC(Cc1ccc(C2(C(=O)O)CCCC2)cc1)C(=O)Nc1c(C)ccn(Cc2ccc(OC)cc2)c1=O)c1ccc2ccccc2c1 (stereo not shown) [Compound 125]
assigned-category: True
//
molecule: CCCCCCn1ccc(C)c(NC(=O)C(Cc2ccc(C(C)(C)C(=O)O)cc2)NC(=O)COc2ccccc2)c1=O (stereo not shown) [Compound 205]
assigned-category: False
